- System: Thyroperoxidase (TPO), gene 54314
- assay info: CCTE_Simmons_AUR_rTPO: CCTE's Amplex UltraRed Assay for Thyroperoxidase (TPO) Inhibition, Simmons Lab (AID 2283662)
Activity calls are given as the source filed them. How the source made its calls: active means hit-call score of the fitted dose curve at least 0.9, where 1 is the maximum; inconclusive means response in the unintended direction; inactive means score below 0.9.
Allowed answers: t for active, f for inactive

So what was the verdict on CCOc1ccc2c(c1)C(C)=CC(C)(C)N2 in this test?
t

And CNC(=O)[C@H]1O[C@@H](n2cnc3c(NCc4cc(Cl)ccc4OCc4cc(C)no4)ncnc32)[C@H](O)[C@@H]1N ?
f

And Cc1cc(=O)[nH]c(=S)[nH]1 ?
t

And COc1ccc(C)cc1N ?
t

And CN[C@H]1CC[C@@H](c2ccc(Cl)c(Cl)c2)c2ccc(S(N)(=O)=O)cc21 ?
f

And Oc1ccc2ccccc2c1N=Nc1ccccc1 ?
f

And C[C@]12C=CC(=O)C=C1CC[C@@H]1[C@@H]2C(=O)C[C@@]2(C)[C@H]1CC[C@]2(O)C(=O)CO ?
f

And CCCc1cc(=O)[nH]c(=S)[nH]1 ?
t

And Cc1cc(NC(=O)C(=O)O)cc(C)c1Oc1ccc(O)c2c1CCC2 ?
t

And Nc1nc(N)c2nc(CNc3ccc(C(=O)N[C@@H](CCC(=O)O)C(=O)O)cc3)cnc2n1 ?
t

And Cc1ccc(C)c(O)c1C ?
t

And Cc1ccc(N(C)C)cc1 ?
t

And O=c1c(O)c(-c2ccc(O)c(O)c2)oc2cc(O)cc(O)c12 ?
t

And Nc1ccccc1N ?
t

And CC(C)(C)c1cc(O)c(C(C)(C)C)cc1O ?
t

And CCNc1cccc(C)c1 ?
t

###

- Read-out: Cytochrome P450 (CYP1A2), CYP1A2 (gene 1544)
- assay info: LTEA_HepaRG_CYP1A2: Life Technologies and Expression Analysis (LTEA) Assay for Cytochrome P450 (CYP1A2) using HepaRG (AID 2283479)
- measurement conditions: mRNA level, 48 h; actives raise or lower the signal
Active and inactive are the calls of the source. The calls were made as follows: active = hit-call score of the fitted dose curve at least 0.9, where 1 is the maximum; inactive = score below 0.9.
Allowed answers: True = active, False = inactive

So what was the verdict on C[Si]1(C)O[Si](C)(C)O[Si](C)(C)O[Si](C)(C)O1 in this test?
False

And CCCCCCOCCO ?
False

And CNC(=O)[C@H]1O[C@@H](n2cnc3c(NCc4cc(Cl)ccc4OCc4cc(C)no4)ncnc32)[C@H](O)[C@@H]1N ?
False

And Clc1cc(Cl)c(Cl)cc1Cl ?
False

And C1CCC(SSC2CCCCC2)CC1 ?
False

And Cc1c(C(=O)O)c(O)cc2c1C(=O)c1c(O)c([C@@H]3O[C@H](CO)[C@@H](O)[C@H](O)[C@H]3O)c(O)c(O)c1C2=O ?
False

And CC1=C(/C=C/C(C)=C/C=C/C(C)=C/CO)C(C)(C)CCC1 ?
False

And Oc1ccc2ccccc2c1N=Nc1ccccc1 ?
True

And CCCCCCCCCCCCCO ?
False

And Cc1ccc(Cl)cc1 ?
False

And COc1ccc(S(=O)(=O)N2C(=O)[C@@](c3ccccc3OC)(N3C[C@H](O)C[C@H]3C(=O)N(C)C)c3cc(Cl)ccc32)c(OC)c1 ?
True

###

- Read-out: BCL2L11 (gene 10018)
- assay info: LTEA_HepaRG_BCL2L11: Life Technologies and Expression Analysis (LTEA) Assay for Bcl-2 (BCL2L11) gene using HepaRG (AID 2283473)
- measurement conditions: mRNA level, 48 h; actives raise or lower the signal
Active and inactive are the calls of the source. How the source made its calls: active means hit-call score of the fitted dose curve at least 0.9, where 1 is the maximum; inactive means score below 0.9.
Allowed answers: active, inactive

So what was the verdict on NCCO in this test?
inactive

And CCCCCCCCCCCC(=O)OC ?
inactive

And CCOC(=O)CCC(=O)OCC ?
inactive

And Oc1ccc2c(c1)OC[C@@H](N1CCC(O)(c3ccc(F)cc3)CC1)[C@H]2O ?
inactive

And Cc1oc(-c2ccccc2)nc1CCOc1cccc2c1ccn2CCC(=O)O ?
active

And CCOc1ccc2c(c1)C(C)=CC(C)(C)N2 ?
active

And COc1cc(C=O)ccc1O ?
inactive

And CC(CO)OC(C)CO (stereo unspecified) (tested in a mixture with another compound) ?
inactive

And Cc1ccccc1Cl ?
inactive

And O=C(N[C@@H](Cc1ccccc1)[C@@H](O)C(=O)N1C[C@@H](O)[C@@H](O)C1)c1cc2cc(Cl)ccc2[nH]1 ?
inactive

And CC(=O)OC/C=C(\C)CCC=C(C)C ?
inactive

And Nc1nc(N)c2nc(CNc3ccc(C(=O)N[C@@H](CCC(=O)O)C(=O)O)cc3)cnc2n1 ?
inactive

And Cc1nc(-c2ccc3c(c2)CCN(CCC2CCC(NC(=O)/C=C/c4ccc(F)cc4)CC2)CC3)no1 (stereo unspecified) ?
inactive

And CC(C)c1ccc(C(=O)N=C(N)N)cc1S(C)(=O)=O ?
active

And C=CCc1ccc(O)c(OC)c1 ?
inactive

And CC1=C(/C=C/C(C)=C/C=C/C(C)=C/CO)C(C)(C)CCC1 ?
inactive

And CCc1c(C(=O)NN2CCCCC2)nn(-c2ccc(Cl)cc2Cl)c1-c1ccc(Br)cc1 ?
active

And COCCOC[C@H](CC1(C(=O)NC2CCC(C(=O)O)CC2)CCCC1)C(=O)Oc1ccc2c(c1)CCC2 (stereo partly specified) ?
inactive

And Nc1ccccc1N ?
active

And C[C@]12C=CC(=O)C=C1CC[C@@H]1[C@@H]2C(=O)C[C@@]2(C)[C@H]1CC[C@]2(O)C(=O)CO ?
inactive

And Clc1cc(Cl)c(Cl)cc1Cl ?
inactive

And FC(F)(F)C(F)(F)C(F)(F)C(F)(F)C(F)(F)C(F)(F)CCI ?
inactive

And CCOC(=O)C(C)(C)Oc1ccc(Cl)cc1 ?
inactive

And Cc1ccc(Cl)cc1 ?
inactive

And Cc1nc(C)nc(N2C[C@@H](C)N(c3ccnc([C@@H](C)O)n3)[C@@H](C)C2)n1 ?
inactive

And CCCCC(CC)COC(=O)CC(C(=O)OCC(CC)CCCC)S(=O)(=O)O (stereo unspecified) ?
inactive

Value source: PubChem BioAssay (EPA / NIEHS)
